These entries and their values trace back to paper PMC8907375.

# System: human lung fibroblasts MRC-5
# procedure.text: Cytotoxicity, neutral red uptake assay
# Assay type: cell-based
pIC50: −log10 of the molar value.
reported.metric: pIC50

Find the measured pIC50 of `c1nc[nH]n1` and report it. < 3.00

---

Recorded MIC100 (complete growth inhibition) values for a group of compounds are listed next.
# Test system: A. ustus (PN-S4)
# procedure.text: In vitro antifungal activity, broth microdilution (MIC100)
# Assay type: cell-based, Aspergillus ustus
# stated.conditions: Aspergillus ustus, 30 °C, 48 h, total growth inhibition, read-out: Fungicidal activity MIC100, AU

Consider the following illustrative entries.
compound: CC(C1CC1)C(O)(Cn1cncn1)c1ccc(-c2ccc([N+](=O)[O-])cc2)cc1 (stereo not drawn)
MIC100 (complete growth inhibition): ≥ 100 µg/mL
//
compound: CC(C)(C)C(=O)C(Oc1ccc(-c2ccc(F)cc2)cc1)n1cncn1 (stereo not drawn)
MIC100 (complete growth inhibition): ≥ 100 µg/mL

Consider now this further compound.
Annotate the compound COc1ccc(-c2ccc(C(O)(Cn3cncn3)C(C)C3CC3)cc2)cc1 (stereo not drawn) with its measured MIC100 (complete growth inhibition). ≥ 100 µg/mL
